meta.source: PubChem BioAssay (NCI)

# Test system: SF-539 CNS
# experiment-notes: NCI-60 one-dose screen, 48 h (100 = growth as untreated, 0 = no growth, -100 = all killed)
# experimental-conditions: 10 µM unless noted
# Method: Cells are grown in 96 well plates and exposed to the test compound for 48 hours. Compounds are tested at a single concentration, which is 10^-5 M for most compounds. The reported endpoint is percent growth (GI% or GIPRCNT), where numbers from 0 - 100% represent growth inhibition, and numbers from -100% - 0 represent cell death. For example, a value of 40 represents 60% growth inhibition. A value of 0 means no net growth occurred over the course of the experiment. […]
This is part of a sample that, as a whole, favours compounds with a hit. Of some 83,000 tested, about 20% had one in any assay.
property-measured: growth (%)
Your answer is read as %, so omit the unit and give the number.

Response field growth (SF-539 CNS) for item `C/C(=N\NC(=O)Nc1ccccc1)c1nnn(-c2ccc([N+](=O)[O-])cc2)c1C` : 99.9

Entry `Cn1cc(-c2nc(N)nnc2-c2c[nH]c3ccc(Br)cc23)c2cc(F)ccc21` under SF-539 CNS had growth of 95.1

# growth measured on SF-539 CNS for item `Cc1cc2nc3c4cc(C#N)ccc4n(CCN(C)C)c3nc2cc1C` = -15.2

The molecule `C#Cc1cc(C(=O)Nc2ccc(CNCCN3CCOCC3)c(C(F)(F)F)c2)ccc1C` , tested on SF-539 CNS, showed growth of 93.6

Entry `N/C(=N\C(N)=N\c1nc2ccccc2s1)c1ccc(Cl)cc1` , tested on SF-539 CNS, has a reported growth of 95.4

The reported growth value, SF-539 CNS, for `CCc1cc2c(cc1Cl)nc1c(=O)[nH]c(=O)nc-1n2CCOCC(C)(C)C` reads 84.2

CCCC/C(=C\c1ccc(O)c(O)c1)C(=O)NC(Cc1ccccc1)C(=O)C(=O)NCCc1ccc(OC)cc1 (configuration not stated) on SF-539 CNS gives growth = 91.6

---

# Tested on: IGROV1 ovarian
# experiment-notes: NCI-60 one-dose screen, 48 h (100 = growth as untreated, 0 = no growth, -100 = all killed)
# experimental-conditions: 10 µM unless noted
The panel holds about 83,000 compounds, 20% with a hit somewhere; the sample as a whole holds those more often.
Under this convention, criterion met denotes growth strictly below 90% and criterion not met denotes growth at or above 90%.

Find out if reported growth for `CN1CCN(c2ccc(C(=O)/C=C/c3cc(F)cc(C(F)(F)F)c3)cc2)CC1` is less than 90% criterion met

Identify whether the molecule `N#C/C(=C\c1ccc(-c2ccc(Cl)cc2)o1)C(=O)Nc1ncc(Cc2ccc(Br)cc2)s1` records growth below 90%. criterion met

API: query returns whether the molecule falls strictly under 90% in growth. Query: `Cc1c(C(=O)/C=C/c2ccc(Cl)cc2)nnn1-c1ccc2oc(=O)ccc2c1` criterion not met

Is 90% strictly greater than the molecule's reported growth? molecule: `N#CC1=C2NCCCNc3oc(nc3C#N)Cc3ccccc3CC(=N1)O2` criterion not met

---

# System: K-562 leukemia
# experiment-notes: NCI-60 one-dose screen, 48 h
# experimental-conditions: 10 µM unless noted
This is part of a sample that, as a whole, favours compounds with a hit. Of some 83,000 tested, about 20% had one in any assay. Calls of active or inactive are those of the source. The calls were made as follows: active = growth percent below 10; inactive = the rest.
Parameter call: string, one of active, inactive

Per the records of this test, what outcome belongs to `C#C[C@]1(O)CC[C@H]2[C@@H]3CC=C4c5sc(N6CCN(C)CC6)nc5CC[C@]4(C)[C@H]3CC[C@@]21C` ? active

Give the logged outcome of this assay for the following compound: `O=C1/C(=C/C=C/c2ccco2)SC(=S)N1Cc1ccccc1` inactive

// return assay outcome for `Cc1ccc(CSC2=C(Cl)CN(c3ccc(Cl)cc3)C2=O)cc1` inactive

Write down the call the test reported for this compound. Item: `CCN(CC)S(=O)(=O)c1ccc(-c2nc(C(Cl)Cl)nc3cc(C)nn23)cc1` active

// return assay outcome for `C#C[C@]1(O)CC[C@H]2[C@@H]3CC=C4c5sc(Nc6ncccc6C)nc5CC[C@]4(C)[C@H]3CC[C@@]21C` active

Could you kindly confirm the outcome this assay logged for `Cc1ccc(-c2nc(SCC(=O)c3ccccc3)nc(Nc3ccc(S(N)(=O)=O)cc3)c2C#N)cc1` ? inactive

Give the logged outcome of this assay for the following compound: `N#Cc1c(-c2cccs2)cc(-c2cnccn2)nc1SCC(=O)N/N=C/c1ccncc1` inactive

Answer briefly: the call reported for `CC(=C(c1ccc(OCCN(C)C)cc1)c1ccc(OCCN(C)C)cc1)c1ccc(Cl)cc1` in this assay. active

Per the records of this test, what outcome belongs to `CC(C)NC(=O)c1cc(-c2ccc(NC(=O)Nc3ccc(F)cc3)cc2)nc2cccnc12` ? inactive
